# target.or.system: NADPH oxidase 2 (Homo sapiens) (UniProt P04839)
# Sequence (P04839 whole entry, looked up): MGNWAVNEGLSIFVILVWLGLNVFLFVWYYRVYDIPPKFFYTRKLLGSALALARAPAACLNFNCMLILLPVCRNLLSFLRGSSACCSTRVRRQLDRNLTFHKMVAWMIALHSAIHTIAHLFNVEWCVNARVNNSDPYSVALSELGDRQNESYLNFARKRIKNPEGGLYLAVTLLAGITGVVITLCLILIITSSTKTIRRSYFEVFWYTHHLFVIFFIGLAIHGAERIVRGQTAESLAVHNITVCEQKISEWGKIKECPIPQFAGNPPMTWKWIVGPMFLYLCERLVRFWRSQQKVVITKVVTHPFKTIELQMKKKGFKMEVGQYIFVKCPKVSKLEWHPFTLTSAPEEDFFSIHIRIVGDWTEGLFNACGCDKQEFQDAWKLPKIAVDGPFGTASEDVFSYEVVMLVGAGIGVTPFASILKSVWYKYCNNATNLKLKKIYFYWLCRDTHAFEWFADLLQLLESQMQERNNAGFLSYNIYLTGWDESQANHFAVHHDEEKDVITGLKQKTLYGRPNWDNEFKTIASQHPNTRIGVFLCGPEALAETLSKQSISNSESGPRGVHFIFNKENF
# protocol.summary: compounds shifting NOX2 Amplex Red fluorescence – cell-based, HEK293-NOX2, PMA-stimulated, NOX inhibitor project, primary screen (AID 1159); note: test concentration not given here
# recorded.conditions: 45 min, higher = more signal, called active from +8 up or from −8 down
Entry flag: fulfilled if z-score reaches -0.5; not fulfilled if it does not.

Some solved entries appear below for comparison.
[[record]]
compound = "O=C1C2C=CC(C(O)c3ccc(Br)cc3)N(Nc3ccccc3)C2C(=O)N1c1ccccc1 (stereo unspecified)"
label_value = "not fulfilled"

[[record]]
compound = "COc1ccc(CCNC(=O)[C@@H]2c3ccccc3C(=O)N(Cc3ccccc3)[C@H]2c2ccc(CO)cc2)cc1"
label_value = "not fulfilled"

[[record]]
compound = "C=CCN1C(=O)[C@@]2(O[C@@H](CCn3cc([C@H](O)c4ccccc4)nn3)[C@H]([Si](C)(C)c3ccc(OC)cc3)[C@H]2C)c2cc(NC(=O)c3ccc(OC)cc3)ccc21"
label_value = "fulfilled"

[[record]]
compound = "CC1=C2[C@@H](CCc3ccccc3)OB(O)C[C@@H]2[C@@H]2C(=O)C=CC(=O)[C@@H]2C1"
label_value = "fulfilled"

[[record]]
compound = "CCN(CC)c1ccc(N2CC=CC34O[C@@H]5/C=C\\CCCOC(=O)C5[C@H]3C(=O)N(CCCCCO)[C@@H]4C2=O)cc1 (stereo partly specified)"
label_value = "fulfilled"


Request: Does z-score meet or surpass -0.5 for `CCCC[C@H]1OB(O)C[C@H]2C1=C(COc1ccccc1)Cn1c(=O)n(-c3ccccc3)c(=O)n12` ?
Result: fulfilled

Request: Does z-score meet or surpass -0.5 for `COC(=O)[C@@]1(Cc2ccccc2)[C@H]2c3cc(C(=O)N4CCCC4)n(Cc4ccccc4)c3C[C@H]2CN1C(=O)c1ccccc1` ?
Result: fulfilled
